Could you please report measured protein stability index for the items listed next?
- Assay name: protein stability index of a GFP-peptide fusion (yeast GPS) (PSI 1-4); higher = more stable; sorted into four equal gates, so the index is relative within each strain
- Condition set: doa10∆
Kindly provide the number alone.

**Query** Item under review: SIESKLEEHKNHLDELQ [SMC1] . Reported protein stability index?
**Result** 2.99

**Query** Item under review: GKLWKDVKARIAAGDGD [QCR9] . Reported protein stability index?
**Result** 2.3

**Query** Item under review: PVQSKFGRKKRKGGPAT [RPT2] . Reported protein stability index?
**Result** 3.47

* * *

Could you please report measured protein stability index for the items listed next?
- Assay name: protein stability index of a GFP-peptide fusion (yeast GPS) (PSI 1-4); higher = more stable; sorted into four equal gates, so the index is relative within each strain
- Condition set: san1∆
Kindly provide the number alone.

**Query** Item under review: ELLANKCPLLVEVDITL [GRR1] . Reported protein stability index?
**Result** 1.59

**Query** Item under review: IFNSGKMIILDKLLKRL [ISW2] . Reported protein stability index?
**Result** 1.55

**Query** Item under review: EKLNKTDENTPSADGAD [ITC1] . Reported protein stability index?
**Result** 3.01

**Query** Item under review: LLPLVVSNISCLTGTVA [ECM29] . Reported protein stability index?
**Result** 1.38

**Query** Item under review: RPDGVHVINVGKTWEKL [RPS0A] . Reported protein stability index?
**Result** 3.4

**Query** Item under review: DIEAGDDDDNNESSSNT [DIS3] . Reported protein stability index?
**Result** 3.05

**Query** Item under review: SGEPIIAATQDFITGSY [RPO31] . Reported protein stability index?
**Result** 3.13

**Query** Item under review: DYCRILSDIETAVNGID [YGL172W/NUP49] . Reported protein stability index?
**Result** 2.75

**Query** Item under review: PSIVFIDEIDAIGTKRY [RPT2] . Reported protein stability index?
**Result** 2.14

**Query** Item under review: STLMPGGVDVGPSVESY [SNF5] . Reported protein stability index?
**Result** 2

**Query** Item under review: EDQKVVDKALIAEIKKT [RPL6A] . Reported protein stability index?
**Result** 3.19

**Query** Item under review: NINATNTSVLMKLKLMI [YCS4] . Reported protein stability index?
**Result** 1.48

**Query** Item under review: LNLNNSELQPQNRSLQE [SNF2] . Reported protein stability index?
**Result** 3.31

**Query** Item under review: EKVRDYENSISKDLRSV [IRR1] . Reported protein stability index?
**Result** 1.82

**Query** Item under review: LNLDEIVACELILSGDT [YJL039C/NUP192] . Reported protein stability index?
**Result** 3.05

**Query** Item under review: VKARHGGCDYIFSLLTG [CYT1] . Reported protein stability index?
**Result** 2.61

**Query** Item under review: PFTDRSVVRGNTFKVLS [COB] . Reported protein stability index?
**Result** 2.52

**Query** Item under review: YQEDIFVSESPSFVKSG [ISW2] . Reported protein stability index?
**Result** 2.48

**Query** Item under review: IIKQTVHPIPDVAFADG [YMR129W/POM152] . Reported protein stability index?
**Result** 2.77

**Query** Item under review: AFSSVEHIIRDVHNGYI [COB] . Reported protein stability index?
**Result** 3.37

**Query** Item under review: QPAQPRESRIVSTEGNV [RPL21A] . Reported protein stability index?
**Result** 3.04

**Query** Item under review: NDPAREKFSSFIESIVV [SNF12] . Reported protein stability index?
**Result** 2.27

**Query** Item under review: ATALQTCAGGRLFNVVV [SMC2] . Reported protein stability index?
**Result** 3.13

**Query** Item under review: VQGAAPWDTSLEVGRRF [MCD1] . Reported protein stability index?
**Result** 3.28

**Query** Item under review: KKRNMPLQSIPEIGNRK [SWI1] . Reported protein stability index?
**Result** 2.81

**Query** Item under review: AQEDVPYLLPYILEAEA [QCR7] . Reported protein stability index?
**Result** 2.03

**Query** Item under review: LSKMRDSVLQLASFEKT [RPO31] . Reported protein stability index?
**Result** 2.91

**Query** Item under review: IAHNISAKNRVVILARA [RPL32] . Reported protein stability index?
**Result** 1.76

**Query** Item under review: LDSLMKTTRLLLIIRSL [YJL039C/NUP192] . Reported protein stability index?
**Result** 1.32

**Query** Item under review: NLVSLLIIVTRKNYMHV [YML031W/NDC1] . Reported protein stability index?
**Result** 1.26

**Query** Item under review: GNVLINDTLPDEISPEL [SNU114] . Reported protein stability index?
**Result** 3.32

**Query** Item under review: CKIDFQKNFMDQFQWIL [RRI2] . Reported protein stability index?
**Result** 1.55

**Query** Item under review: KELMLQSKKLIEEKLSS [YIL149C/MLP2] . Reported protein stability index?
**Result** 2.72

**Query** Item under review: DQLIISSSANKLLQLFL [YML103C/NUP188] . Reported protein stability index?
**Result** 1.89

**Query** Item under review: STKIIMLLLNDSVENSS [SRB8] . Reported protein stability index?
**Result** 2.6

**Query** Item under review: PLQNNLPELWALLNFVL [SNF2] . Reported protein stability index?
**Result** 2.56

**Query** Item under review: KTVQSMTQRAIQSAESI [SWI3] . Reported protein stability index?
**Result** 2.53

**Query** Item under review: KRFLILQGEVENIAQMK [SMC4] . Reported protein stability index?
**Result** 3.2

**Query** Item under review: SGNIQLDEIIEIARQMR [RPL12A] . Reported protein stability index?
**Result** 3.05

**Query** Item under review: SSLSFGPENALNVYHYF [YJL039C/NUP192] . Reported protein stability index?
**Result** 2.04

**Query** Item under review: QQQQAAALANANNNINS [SWI1] . Reported protein stability index?
**Result** 2.46

**Query** Item under review: LDIGLQRTTTGARVFGA [RPL5] . Reported protein stability index?
**Result** 1.31

**Query** Item under review: KVDATPEESKPINLQNG [YLR335W/NUP2] . Reported protein stability index?
**Result** 2.8

**Query** Item under review: KDIFRYMQRTVEEAHDF [RPB2] . Reported protein stability index?
**Result** 1.91

**Query** Item under review: DQVVVRGIDTLQKKVAS [RPB3] . Reported protein stability index?
**Result** 2.68

**Query** Item under review: SLIIDQQENSKSGKRKP [RPC31] . Reported protein stability index?
**Result** 2.69

* * *

- Assay name: protein stability index of a GFP-peptide fusion (yeast GPS) (PSI 1-4); higher = more stable; sorted into four equal gates, so the index is relative within each strain
- Condition set: doa10∆
Could you please report measured protein stability index for the items listed next?
Kindly provide the number alone.

**Query** Item under review: HRLKLCKSLISENEDTK [CSE2] . Reported protein stability index?
**Result** 2.91

**Query** Item under review: MNRPGARVTRRKRCKGT [RPL11A] . Reported protein stability index?
**Result** 3.05

**Query** Item under review: KVSSAEYYAKKRAFTKK [RPL16A] . Reported protein stability index?
**Result** 3

**Query** Item under review: AGALNLASPEVKVHMDS [DIS3] . Reported protein stability index?
**Result** 3.06

**Query** Item under review: KHLEDNTLLVTGPFKVN [RPL6B] . Reported protein stability index?
**Result** 3.03

**Query** Item under review: NQKTSAVAALTEVRAED [RPL8A] . Reported protein stability index?
**Result** 2.92

**Query** Item under review: IPSSKIDDFTTRLWGSV [SNU114] . Reported protein stability index?
**Result** 2.93

**Query** Item under review: DYSRKQLGYGKFLILNE [NUT1] . Reported protein stability index?
**Result** 2.97

**Query** Item under review: SAAKASQSRSAKAGLTF [HTA1] . Reported protein stability index?
**Result** 3.06

* * *

- Assay name: protein stability index of a GFP-peptide fusion (yeast GPS) (PSI 1-4); higher = more stable; sorted into four equal gates, so the index is relative within each strain
- Condition set: pdr5∆
Could you please report measured protein stability index for the items listed next?
Kindly provide the number alone.

**Query** Item under review: EVQCTSTPYLEILVEES [PCI8] . Reported protein stability index?
**Result** 2.96

**Query** Item under review: FASNKKINDESSIDKKS [YML103C/NUP188] . Reported protein stability index?
**Result** 2.92

**Query** Item under review: KALDNACGAFININEFA [CDC53] . Reported protein stability index?
**Result** 3

The reported numbers originate from the supplement of paper PMC9732359.
